conditions: in acetonitrile, 313.15 K
assay endpoint: solubility (mole fraction)
Answer with the value's number alone.

Can you look up the measured solubility (mole fraction) of `COc1cc(CO)ccc1O` for me?
0.0415

* * *

conditions: in acetonitrile, 343.15 K
assay endpoint: solubility (mole fraction)

Can you look up the measured solubility (mole fraction) of `COc1cc(CO)ccc1O` for me?
0.22

* * *

details: in n-butanol, 333.15 K
assay endpoint: solubility (mole fraction)
Answer with the value's number alone.

Can you look up the measured solubility (mole fraction) of `COc1cc(CO)ccc1O` for me?
0.134

* * *

details: in n-butanol, 323.15 K
assay endpoint: solubility (mole fraction)
Answer with the value's number alone.

Can you look up the measured solubility (mole fraction) of `COc1cc(CO)ccc1O` for me?
0.0902

* * *

settings: in isopentanol, 333.15 K
assay endpoint: solubility (mole fraction)
Answer with the value's number alone.

Can you look up the measured solubility (mole fraction) of `COc1cc(CO)ccc1O` for me?
0.0912

* * *

conditions: in isopentanol, 293.15 K
assay endpoint: solubility (mole fraction)
Answer with the value's number alone.

Can you look up the measured solubility (mole fraction) of `COc1cc(CO)ccc1O` for me?
0.0225

* * *

details: in isopentanol, 313.15 K
assay endpoint: solubility (mole fraction)
Answer with the value's number alone.

Can you look up the measured solubility (mole fraction) of `COc1cc(CO)ccc1O` for me?
0.0447

* * *

settings: in isopropanol, 303.15 K
assay endpoint: solubility (mole fraction)
Answer with the value's number alone.

Can you look up the measured solubility (mole fraction) of `COc1cc(CO)ccc1O` for me?
0.0418

* * *

settings: in ethanol, 343.15 K
assay endpoint: solubility (mole fraction)
Answer with the value's number alone.

Can you look up the measured solubility (mole fraction) of `COc1cc(CO)ccc1O` for me?
0.317

* * *

details: in n-butyl acetate, 323.15 K
assay endpoint: solubility (mole fraction)
Answer with the value's number alone.

Can you look up the measured solubility (mole fraction) of `COc1cc(CO)ccc1O` for me?
0.0428

* * *

settings: in isopropanol, 293.15 K
assay endpoint: solubility (mole fraction)
Answer with the value's number alone.

Can you look up the measured solubility (mole fraction) of `COc1cc(CO)ccc1O` for me?
0.0284

* * *

details: in n-butyl acetate, 313.15 K
assay endpoint: solubility (mole fraction)
Answer with the value's number alone.

Can you look up the measured solubility (mole fraction) of `COc1cc(CO)ccc1O` for me?
0.027

* * *

conditions: in isopentanol, 303.15 K
assay endpoint: solubility (mole fraction)
Answer with the value's number alone.

Can you look up the measured solubility (mole fraction) of `COc1cc(CO)ccc1O` for me?
0.0302

* * *

conditions: in n-butanol, 293.15 K
assay endpoint: solubility (mole fraction)

Can you look up the measured solubility (mole fraction) of `COc1cc(CO)ccc1O` for me?
0.0234

* * *

details: in ethanol, 313.15 K
assay endpoint: solubility (mole fraction)
Answer with the value's number alone.

Can you look up the measured solubility (mole fraction) of `COc1cc(CO)ccc1O` for me?
0.0936

* * *

settings: in n-butyl acetate, 333.15 K
assay endpoint: solubility (mole fraction)
Answer with the value's number alone.

Can you look up the measured solubility (mole fraction) of `COc1cc(CO)ccc1O` for me?
0.0653

* * *

settings: in n-butyl acetate, 343.15 K
assay endpoint: solubility (mole fraction)
Answer with the value's number alone.

Can you look up the measured solubility (mole fraction) of `COc1cc(CO)ccc1O` for me?
0.107
